FYI, the data here is from patent US20220204437A1.

test-context: DOX alone or DOX co-treated with the compound
measurement-label: LC50 of DOX (µM)
The figure you give is taken to be in µM; do not add the unit.

Examples with answers:
C[C@]12CC[C@@H]3C(CC[C@H]4[C@@]3(C)CCC[C@@]4(C)C(=O)O)(C1)[C@H](C(=O)O)[C@H]2O	66.62
C[C@]12CC[C@@H]3C(CC[C@H]4[C@@]3(C)CCC[C@@]4(C)C(=O)O)(C1)[C@H](C=O)[C@H]2O	92.61
C[C@]12CC[C@@H]3C(CC[C@H]4[C@@]3(C)CCC[C@@]4(C)C(=O)O)(C1)[C@H](CO)C2=O	74.83

Proceed to the following item.
[ask] Bench note: what LC50 of DOX did COc1cccc2c1C(=O)c1c(O)c3c(c(O)c1C2=O)C[C@@](O)(C(=O)CO)C[C@@H]3O[C@H]1C[C@H](N)[C@H](O)[C@H](C)O1 [DOX, Doxorubicin, reference compound] show?
[reply] 51.56
